target: wild type PKR (Homo sapiens); test: PKR (wild type) enzyme AC50 assay, LDH/NADH-coupled, absorbance at 340 nm; assay type: biochemical; conditions: Table 2; enzyme assay; read-out: PKR WT AC50
Sequence (P30613 whole entry): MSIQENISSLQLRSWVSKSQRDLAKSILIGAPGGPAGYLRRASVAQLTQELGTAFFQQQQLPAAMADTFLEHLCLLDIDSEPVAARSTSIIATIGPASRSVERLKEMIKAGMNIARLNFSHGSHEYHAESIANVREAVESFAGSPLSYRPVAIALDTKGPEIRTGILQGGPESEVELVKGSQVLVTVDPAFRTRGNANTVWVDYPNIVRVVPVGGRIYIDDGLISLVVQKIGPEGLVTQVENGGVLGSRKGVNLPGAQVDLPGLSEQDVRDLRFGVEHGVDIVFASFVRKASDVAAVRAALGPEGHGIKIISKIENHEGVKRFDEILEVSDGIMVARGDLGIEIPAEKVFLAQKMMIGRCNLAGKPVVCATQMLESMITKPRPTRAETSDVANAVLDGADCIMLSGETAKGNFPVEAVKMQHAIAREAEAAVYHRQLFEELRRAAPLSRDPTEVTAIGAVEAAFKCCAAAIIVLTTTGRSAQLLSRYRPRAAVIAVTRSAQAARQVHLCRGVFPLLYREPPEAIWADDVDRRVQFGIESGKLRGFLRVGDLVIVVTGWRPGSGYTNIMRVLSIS
REPORTED_METRIC: AC50

INSERT INTO measurements (compound, target_system, reported_metric, measured_value) VALUES
  ('Cc1nc2c(s1)c1cnn(Cc3ccc4[nH]ncc4c3)c(=O)c1n2C', 'wild type PKR (Homo sapiens)', 'AC50', '< 0.3 µM'),
  ('Cc1nc2c(s1)c1cnn(Cc3ccc(N)cc3)c(=O)c1n2C', 'wild type PKR (Homo sapiens)', 'AC50', '> 0.8 µM'),
  ('Cn1c2nc(Cc3cccc(O)c3)sc2c2cnn(Cc3cccc4[nH]ncc34)c(=O)c21', 'wild type PKR (Homo sapiens)', 'AC50', '< 0.3 µM');

Input line: Query: AC50; subject: "Cn1c2nc(C(N)=O)sc2c2cnn(Cc3cccc(N)n3)c(=O)c21"
Output line: < 0.3 µM

Input line: Try this compound too: "Cn1c2nc(Cc3cc(C(F)(F)F)[nH]n3)sc2c2cnn(Cc3cccc4[nH]ncc34)c(=O)c21"
Output line: 0.301 to 0.8 µM

Input line: Try this compound too: "Cc1nc2c(s1)c1cnn(Cc3cccc(F)c3)c(=O)c1n2C"
Output line: > 0.8 µM

Input line: Try this compound too: "Cc1nc2c(s1)c1cnn(Cc3cccc(CO)c3)c(=O)c1n2C"
Output line: < 0.3 µM

Input line: Try this compound too: "Cc1nc2c(s1)c1cnn(Cc3cn[nH]c3)c(=O)c1n2C"
Output line: > 0.8 µM

====

Quick list: AC50 per entry.
molecular target: PKR K410E (Homo sapiens, UniProt P30613, K410E); experiment: PKR mutant assay (K410E), AC50, LDH/NADH-coupled, absorbance at 340 nm; format: biochemical; conditions: Table 2; enzyme assay
Sequence (P30613 whole entry K410E): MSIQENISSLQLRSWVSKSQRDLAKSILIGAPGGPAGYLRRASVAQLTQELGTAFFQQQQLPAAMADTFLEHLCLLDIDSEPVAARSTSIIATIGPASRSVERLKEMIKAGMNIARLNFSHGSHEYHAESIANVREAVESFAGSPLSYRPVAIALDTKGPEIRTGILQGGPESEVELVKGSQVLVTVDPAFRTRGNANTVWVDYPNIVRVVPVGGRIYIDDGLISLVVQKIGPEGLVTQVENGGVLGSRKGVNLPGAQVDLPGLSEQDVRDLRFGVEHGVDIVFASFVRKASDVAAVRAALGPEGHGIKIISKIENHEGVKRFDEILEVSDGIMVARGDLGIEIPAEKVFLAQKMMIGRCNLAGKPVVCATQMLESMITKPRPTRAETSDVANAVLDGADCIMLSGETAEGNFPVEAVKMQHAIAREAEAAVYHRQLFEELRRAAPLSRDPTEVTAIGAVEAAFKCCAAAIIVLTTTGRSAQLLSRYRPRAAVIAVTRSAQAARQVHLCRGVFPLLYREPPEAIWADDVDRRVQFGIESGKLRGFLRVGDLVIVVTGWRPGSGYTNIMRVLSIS

Solved entries:
INSERT INTO measurements (molecule, reported_metric, measured_value) VALUES
  ('CC(=O)c1cccc(Cn2ncc3c4sc([S+](C)[O-])nc4n(C)c3c2=O)c1 (centres unmarked) [Compound 86]', 'AC50', '> 800 nM'),
  ('Cn1c2nc([S+](C)[O-])sc2c2cnn(Cc3cnc(N)nc3)c(=O)c21 (centres unmarked) [Compound 94]', 'AC50', '> 800 nM');

Input line: Query: AC50; subject: Cn1c2nc(C(C)(O)c3cc[nH]n3)sc2c2cnn(Cc3cccc4[nH]ncc34)c(=O)c21 (centres unmarked) [Compound 162]
Output line: < 300 nM

Input line: Try this molecule too: Cn1c2nc(C(N)=O)sc2c2cnn(Cc3cccc(N)n3)c(=O)c21 [Compound 158]
Output line: < 300 nM

Input line: Try this molecule too: CCOC(=O)Cn1ncc2c3sc(C)nc3n(C)c2c1=O [Compound 66]
Output line: > 800 nM

Input line: Try this molecule too: Cn1c2nc(Cc3ccccc3)sc2c2cnn(Cc3cccc4[nH]ncc34)c(=O)c21 [Compound 91]
Output line: < 300 nM

Input line: Try this molecule too: Cc1nc2c(s1)c1cnn(CCOCCO)c(=O)c1n2C [Compound 54]
Output line: > 800 nM

Input line: Try this molecule too: COC(=O)C(c1cc[nH]n1)c1nc2c(s1)c1cnn(Cc3cccc4[nH]ncc34)c(=O)c1n2C (centres unmarked) [Compound 171]
Output line: 301 to 800 nM
